Where do these numbers come from? They come from patent US20180116849A1.

assay.method.text: Colour, fluorescence or emission of the dye
Assay type: physicochemical
test.conditions: dyes identified as indicator for balloon rupture
quantity.name: Emission colour of dye identified as suitable

molecule	meas.value
O=C1/C(=C2\Nc3ccc(S(=O)(=O)[O-])cc3C2=O)Nc2ccc(S(=O)(=O)[O-])cc21.[Na+].[Na+] [Indigo carmine]	blue emission
Nc1nc(N)c2nc(-c3ccccc3)c(N)nc2n1 [Triamterene, reference compound]	blue emission
